Test system: DENV 2
Test: Antiviral assay on Huh 7 cells
Type: cell-based
Conditions: Dengue virus, Huh-7, 48 h, read-out: EC50 (Huh 7 μM)
Structures can show the parent of a compound that is named as a salt.
EXPERIMENTAL_ENDPOINT: EC50 (nM)
Please respond with the number in nM and leave the unit unwritten.

- COC(=O)N[C@H](C(=O)N1CC2(CC2)C[C@H]1c1nc(-c2ccc3c(c2)C(F)(F)c2cc(-c4ccc5[nH]c([C@@H]6[C@H]7CC[C@H](C7)N6C(=O)[C@@H](NC(=O)OC)C(C)C)nc5c4)ccc2-3)c[nH]1)C(C)C: 529
- CC1=NN(c2ccc(C)c(C)c2)C(=O)/C1=N\Nc1cccc(-c2cccc(C(=O)O)c2)c1O: 1460
- CCOC(=O)c1ccc(C#Cc2ccc3c(c2)C(C)(C)CCS3)nc1: 107

Quote EC50 reported for Cc1cc(-c2ccc(/N=N/c3ccc4c(S(=O)(=O)O)cc(S(=O)(=O)O)c(N)c4c3O)c(C)c2)ccc1/N=N/c1ccc2c(S(=O)(=O)O)cc(S(=O)(=O)O)c(N)c2c1O please.
337

Output measured EC50 for this item: COC(=O)N[C@H](C(=O)N1CCC[C@H]1c1nc(-c2ccc3c(c2)O[C@@H](c2ccccc2)n2c-3cc3cc(-c4c[nH]c([C@@H]5CCCN5C(=O)[C@@H](NC(=O)OC)C(C)C)n4)ccc32)c[nH]1)C(C)C
161

Supply reported EC50 belonging to this compound: NC(=NCc1ccccc1)NC(=O)c1nc(Cl)c(N)nc1N [Benzamil hydrochloride]
2620

* * *

Tested on: DENV 2
Experiment: microbe, parasite or virus in culture
Format: cell-based
Conditions: selective index, BHK-21 CC50 / BHK-21 EC50
Structures can show the parent of a compound that is named as a salt.
EXPERIMENTAL_ENDPOINT: SI (CC50/EC50)
Please give the numeric answer without any surrounding text.

Consider the following illustrative entries.
- NC(=NCc1ccccc1)NC(=O)c1nc(Cl)c(N)nc1N [Benzamil hydrochloride]: 120.85
- Cc1cc(-c2ccc(/N=N/c3ccc4c(S(=O)(=O)O)cc(S(=O)(=O)O)c(N)c4c3O)c(C)c2)ccc1/N=N/c1ccc2c(S(=O)(=O)O)cc(S(=O)(=O)O)c(N)c2c1O [Evans Blue]: 49.98

Give SI (CC50/EC50) for CCOC(=O)c1ccc(C#Cc2ccc3c(c2)C(C)(C)CCS3)nc1 [AGN190168]
24.15

* * *

Attribute: EC50
System: DENV 2
Test: microbe, parasite or virus in culture
Assay type: cell-based
Conditions: Dengue virus, BHK-21, 48 h, read-out: EC50 (BHK-21 μM)
Structures can show the parent of a compound that is named as a salt.
Answer format: numeric, nM implied, no suffix.

Known EC50 results, listed for orientation:
- CCOC(=O)c1ccc(C#Cc2ccc3c(c2)C(C)(C)CCS3)nc1 [AGN190168]: 10900
- Cc1cc(-c2ccc(/N=N/c3ccc4c(S(=O)(=O)O)cc(S(=O)(=O)O)c(N)c4c3O)c(C)c2)ccc1/N=N/c1ccc2c(S(=O)(=O)O)cc(S(=O)(=O)O)c(N)c2c1O [Evans Blue]: 4850
- COC(=O)N[C@H](C(=O)N1CC2(CC2)C[C@H]1c1nc(-c2ccc3c(c2)C(F)(F)c2cc(-c4ccc5[nH]c([C@@H]6[C@H]7CC[C@H](C7)N6C(=O)[C@@H](NC(=O)OC)C(C)C)nc5c4)ccc2-3)c[nH]1)C(C)C [GS-5885]: 3320
- NC(=NCc1ccccc1)NC(=O)c1nc(Cl)c(N)nc1N [Benzamil hydrochloride]: 368
- COC(=O)N[C@H](C(=O)N1CCC[C@H]1c1nc(-c2ccc3c(c2)O[C@@H](c2ccccc2)n2c-3cc3cc(-c4c[nH]c([C@@H]5CCCN5C(=O)[C@@H](NC(=O)OC)C(C)C)n4)ccc32)c[nH]1)C(C)C [MK-8742]: 45.9

Here is another compound to look at.
Entry CC1=NN(c2ccc(C)c(C)c2)C(=O)/C1=N\Nc1cccc(-c2cccc(C(=O)O)c2)c1O [Eltrombopag] needs its EC50 filled in; supply it.
316
